# tested_target: T1, TNFR1 (Homo sapiens, UniProt P19438)
# T1 chain: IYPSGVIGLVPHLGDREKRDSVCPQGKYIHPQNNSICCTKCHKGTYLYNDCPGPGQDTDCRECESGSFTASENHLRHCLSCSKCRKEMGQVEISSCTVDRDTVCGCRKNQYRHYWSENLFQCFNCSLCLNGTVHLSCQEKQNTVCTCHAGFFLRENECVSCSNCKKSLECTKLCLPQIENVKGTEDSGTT
# test_name: yeast display SC50
quantity_measured: apparent Kd (screen) (nM)

[
  {
    "binder": "K18A (designed binder) SMEEEVEKAAKEYEKKKAEAIEKHLEKLKAKDKEAAERFLKELEEAAKEYAKDEAKTMSEEEAKRRAKKYKEKVLLSELSEEEQKEIKEAEEKLVRTILKYVEEAAK",
    "apparent Kd (screen), nM": 0.79
  },
  {
    "binder": "K27E (designed binder) SMEEEVEKAAKEYEKKKKEAIEKHLEELKAKDKEAAERFLKELEEAAKEYAKDEAKTMSEEEAKRRAKKYKEKVLLSELSEEEQKEIKEAEEKLVRTILKYVEEAAK",
    "apparent Kd (screen), nM": 0.956
  },
  {
    "binder": "L75S (designed binder) SMEEEVEKAAKEYEKKKKEAIEKHLEKLKAKDKEAAERFLKELEEAAKEYAKDEAKTMSEEEAKRRAKKYKEKVSLSELSEEEQKEIKEAEEKLVRTILKYVEEAAK",
    "apparent Kd (screen), nM": 0.718
  },
  {
    "binder": "E22L (designed binder) SMEEEVEKAAKEYEKKKKEAILKHLEKLKAKDKEAAERFLKELEEAAKEYAKDEAKTMSEEEAKRRAKKYKEKVLLSELSEEEQKEIKEAEEKLVRTILKYVEEAAK",
    "apparent Kd (screen), nM": 0.869
  },
  {
    "binder": "F39Q (designed binder) SMEEEVEKAAKEYEKKKKEAIEKHLEKLKAKDKEAAERQLKELEEAAKEYAKDEAKTMSEEEAKRRAKKYKEKVLLSELSEEEQKEIKEAEEKLVRTILKYVEEAAK",
    "apparent Kd (screen), nM": 5.84
  },
  {
    "binder": "E72G (designed binder) SMEEEVEKAAKEYEKKKKEAIEKHLEKLKAKDKEAAERFLKELEEAAKEYAKDEAKTMSEEEAKRRAKKYKGKVLLSELSEEEQKEIKEAEEKLVRTILKYVEEAAK",
    "apparent Kd (screen), nM": 1.54
  }
]

1 = A51M (designed binder) SMEEEVEKAAKEYEKKKKEAIEKHLEKLKAKDKEAAERFLKELEEAAKEYMKDEAKTMSEEEAKRRAKKYKEKVLLSELSEEEQKEIKEAEEKLVRTILKYVEEAAK
2 = E12P (designed binder) SMEEEVEKAAKPYEKKKKEAIEKHLEKLKAKDKEAAERFLKELEEAAKEYAKDEAKTMSEEEAKRRAKKYKEKVLLSELSEEEQKEIKEAEEKLVRTILKYVEEAAK
Challenge: For the two items 1 and 2 , which reports the higher apparent Kd (screen) value? Your answer should be the label of the entry you select.
Response given: 2
